src = the RNAGym collection of RNA variant scans (doi:10.7554/elife.80360)

B1: CPEB3 Ribozyme (parent)
chain: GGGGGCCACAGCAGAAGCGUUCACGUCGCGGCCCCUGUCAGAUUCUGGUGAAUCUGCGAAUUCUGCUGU

- Variants of: B1
- procedure-text: self-cleavage, relative activity (ratio to wild type); higher = more cleavage; co-transcriptional
endpoint-name: self-cleavage
Lab note: write the figure by itself, no unit.

Answered cases to consult:
{"seq-string": "GGGCGCCACAGCAGAAGCGUUCACGUCGCGGCCCCUGUCAGAUUCUGGUGAAUCUGCGAAUUCUGUUGU [G4C C66U]", "self-cleavage": 0.678}
{"seq-string": "GCGGGCCACAGCAGAAGCGUUCACGUCACGGCCCCUGUCAGAUUCUGGUGAAUCUGCGAAUUCUGCUGU [G2C G28A]", "self-cleavage": 0.0369}
{"seq-string": "GGGGGCCACAACAGAAGCGUUCACGUCGCGGCCCCUGUCACAUUCUGGUGAAUCUGCGAAUUCUGCUGU [G11A G41C]", "self-cleavage": 0.278}
{"seq-string": "GGGGGACACAGCAGAAGCGUUCACGUCGCGGCCCCUGUCGGAUUCUGGUGAAUCUGCGAAUUCUGCUGU [C6A A40G]", "self-cleavage": 0.426}
{"seq-string": "GGGGGCCACAGCAGAAGCGUUCACGACCCGGCCCCUGUCAGAUUCUGGUGAAUCUGCGAAUUCUGCUGU [U26A G28C]", "self-cleavage": 0.114}

Input line: I would be grateful if you could share the reported self-cleavage for GGGGCCCACAGCAGAAGCGUUCACGUCGCGGCCCCUGUCAGAUUCUGGUGAAUCUGCGAACUCUGCUGU [G5C U61C] .
Output line: 0.13

Input line: What would you report for GGGCGCCACAGCAGAAGGGUUCACGUCGCGGCCCCUGUCAGAUUCUGGUGAAUCUGCGAAUUCUGCUGU [G4C C18G] ?
Output line: 0.0437

Input line: What would you report for GGGGGCCACAACAGAAGCGUUCACGUCGCGGCCCCUGUCAGAUUCUGGUGAAUCUGCGAAUUCUGUUGU [G11A C66U] ?
Output line: 0.967

Input line: What would you report for GUGGGCCACAGCAGAAGCGUUCACGUCGCGGCCCCUGUCAGAUUCUCGUGAAUCUGCGAAUUCUGCUGU [G2U G47C] ?
Output line: 0.0826

Input line: What would you report for GGGGGCCACAGCAGAUGCGUUCACGUCGCGGCCCCUGUCAGAUUCUGGUGAAACUGCGAAUUCUGCUGU [A16U U53A] ?
Output line: 0.66
